Across several studies, compounds have been characterized by their log10 Ki on Cannabinoid receptor 1 (Homo sapiens, UniProt P21554); a selection follows.
Sequence (P21554 whole entry): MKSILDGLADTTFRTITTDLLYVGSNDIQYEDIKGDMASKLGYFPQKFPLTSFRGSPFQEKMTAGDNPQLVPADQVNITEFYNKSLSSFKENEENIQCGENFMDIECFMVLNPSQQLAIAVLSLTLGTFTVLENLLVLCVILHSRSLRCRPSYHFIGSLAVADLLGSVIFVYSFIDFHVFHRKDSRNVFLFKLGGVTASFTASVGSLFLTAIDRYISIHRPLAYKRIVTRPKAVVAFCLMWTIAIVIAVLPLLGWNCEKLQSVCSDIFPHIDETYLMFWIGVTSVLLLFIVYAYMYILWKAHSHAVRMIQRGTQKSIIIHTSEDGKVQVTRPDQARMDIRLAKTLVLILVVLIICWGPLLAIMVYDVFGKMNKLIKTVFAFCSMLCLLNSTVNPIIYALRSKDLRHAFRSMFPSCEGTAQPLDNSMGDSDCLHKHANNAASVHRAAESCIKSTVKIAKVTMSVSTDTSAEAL
Form field - Quantity: Ki; Unit: nM; Scale: log10

Prompt: Using Cannabinoid receptor 1 (Homo sapiens, UniProt P21554) as the test system, report measured log10 Ki of `CCn1nc2c(-c3ccc(Cl)cc3)c(-c3cnc(N(C)C)nc3)c(=O)n(Cc3ccc(C#N)cc3)n2c1=O` .
Response: 1.89

Prompt: Using Cannabinoid receptor 1 (Homo sapiens, UniProt P21554) as the test system, report measured log10 Ki of `Cc1c(C(=O)NN2CCCCC2)nn(-c2ccc(Cl)cc2Cl)c1-n1c(C)ccc1C` .
Response: 1.58

Prompt: Using Cannabinoid receptor 1 (Homo sapiens, UniProt P21554) as the test system, report measured log10 Ki of `O=C(NC1CCCCCC1)c1cnn(-c2ccc(Cl)cc2Cl)c1-c1ccc(Br)cc1` .
Response: 3.04

Prompt: Using Cannabinoid receptor 1 (Homo sapiens, UniProt P21554) as the test system, report measured log10 Ki of S=C(NC1CCCCC1)N1CCN(C(c2ccccc2)c2ccc(Cl)cc2Cl)CC1 (centres undefined) .
Response: -0.70

Prompt: Using Cannabinoid receptor 1 (Homo sapiens, UniProt P21554) as the test system, report measured log10 Ki of Cc1c(C(=O)NC(C)c2ccccc2)nn(-c2ccc(Cl)c(Cl)c2)c1-n1c(C)ccc1C (centres undefined) .
Response: 1.90

Prompt: Using Cannabinoid receptor 1 (Homo sapiens, UniProt P21554) as the test system, report measured log10 Ki of `CNC(=O)c1cnc(-c2ccc(C)cc2)c(-c2ccc(C)cc2)n1` .
Response: 3.59

Prompt: Using Cannabinoid receptor 1 (Homo sapiens, UniProt P21554) as the test system, report measured log10 Ki of `O=C(NC1CC1)c1cnn(-c2ccc(Cl)cc2Cl)c1-c1ccc(Br)cc1` .
Response: 3.00

Prompt: Using Cannabinoid receptor 1 (Homo sapiens, UniProt P21554) as the test system, report measured log10 Ki of O=C1C(c2ccccc2)N(c2ccc(Br)cc2)C(=S)N1c1ccc(Br)cc1 (centres undefined) .
Response: 3.16

Prompt: Using Cannabinoid receptor 1 (Homo sapiens, UniProt P21554) as the test system, report measured log10 Ki of CC1CC(C)CN(S(=O)(=O)c2ccc(F)c(C(=O)NC(c3ccccc3)c3ccccc3)c2)C1 (centres undefined) .
Response: 2.79

Prompt: Using Cannabinoid receptor 1 (Homo sapiens, UniProt P21554) as the test system, report measured log10 Ki of `CC(C(=O)NCCC(c1ccccc1)c1ccccc1)(c1ccccc1)c1ccccc1` .
Response: 2.75

Prompt: Using Cannabinoid receptor 1 (Homo sapiens, UniProt P21554) as the test system, report measured log10 Ki of `O=C(N1CCCCC1)N1CC(O[C@H](c2ccc(Cl)cc2)c2cccnc2Cl)C1` .
Response: 0.85

Prompt: Using Cannabinoid receptor 1 (Homo sapiens, UniProt P21554) as the test system, report measured log10 Ki of O=C(C1CCC1)N1CCN(C(c2ccccc2)c2ccc(Cl)cc2Cl)CC1 (centres undefined) .
Response: 2.46

Prompt: Using Cannabinoid receptor 1 (Homo sapiens, UniProt P21554) as the test system, report measured log10 Ki of `CN(C(=O)c1cn(-c2ccc(Cl)cc2)c(-c2ccccc2Cl)n1)C1CCCCC1` .
Response: 1.53

Prompt: Using Cannabinoid receptor 1 (Homo sapiens, UniProt P21554) as the test system, report measured log10 Ki of `CCn1nc2c(-c3ccc(Cl)cc3)c(-c3ccc(C#N)c(C)c3)c(=O)n(Cc3ccc(C(F)(F)F)nc3C)n2c1=O` .
Response: 0.48

Prompt: Using Cannabinoid receptor 1 (Homo sapiens, UniProt P21554) as the test system, report measured log10 Ki of `Cc1c2c(n(-c3ccc(Cl)cc3Cl)c1-c1cccnc1)CCN(C1CCCCC1)C2=O` .
Response: 2.59

Prompt: Using Cannabinoid receptor 1 (Homo sapiens, UniProt P21554) as the test system, report measured log10 Ki of `COc1ccc(S(=O)(=O)c2cc(OC)ccc2S(=O)(=O)c2ccc([C@H](C)NC(=O)Nc3ccc(F)cc3)cc2)cc1` .
Response: 4.25

Prompt: Using Cannabinoid receptor 1 (Homo sapiens, UniProt P21554) as the test system, report measured log10 Ki of `O=C(c1ccc(-n2cnnn2)cc1)N(c1ccccc1)C1(C(=O)Nc2ccccc2)CCCCC1` .
Response: 3.02
